This collection of values is drawn from PubChem BioAssay (NCI).

Listed next: entries and their corresponding TGI.
tested on: A498 renal; test: NCI tumour cell line growth inhibition, 48 h
Field format: number, assumed µM, no unit text.

Below, each entry is followed by its recorded TGI result.
CCOC(=O)Oc1ccc2c(c1)c(=O)c1c(NCCCN(CC)CC)ccc3nnn2c31    23.2
Cc1ccc([N+](=O)[O-])c2c(NCCC[N+](C)(C)[O-])ccnc12    90.5
CN(C)CC1=Nc2cccc3cccc(c23)N1    28.2

// next item, TGI requested
## Input Under A498 renal: TGI value of "Oc1ccc(O)c2c1C1(Cl)C(Cl)=C(Cl)C2(Cl)C1(Cl)Cl" ?
## Output 6.23

###

tested on: HCC-2998 colon; assay: NCI tumour cell line growth inhibition, 48 h
Listed below: TGI values for each entry.

Worked cases, answers included:
O=S(=O)(N/N=C/c1ccc(Cl)cc1Cl)c1ccccc1    > 100 µM
CN1CCCC(C(=O)OCC(=O)C2(O)CCC3C4CCC5=CC(=O)CCC5(C)C4C(O)CC32C)C1 (centres undefined)    22.1 µM
Cc1ccc(N2C(=O)C(=O)N(/N=C3\C(=O)Nc4ccccc43)C2=S)cc1    > 100 µM

Next:
## Input Recall the recorded TGI for CCCCN(CCCC)CCC(O)c1cc2ccc(C(F)(F)F)cc2c2cc(C(F)(F)F)ccc12 (centres undefined) with HCC-2998 colon and state it.
## Output 4.58 µM

###

tested on: MALME-3M melanoma; assay: NCI tumour cell line growth inhibition, 48 h
VALUE KIND: TGI

## Input Which TGI is reported for this compound? "CCCc1cc(-c2ccc(-c3cc(CCC)c(C=O)[nH]3)s2)[nH]c1C=O"
## Output > 100 µM

## Input Which TGI is reported for this compound? CCOC(=O)/C=C1\Oc2ccccc2C1(C)O (stereo not drawn)
## Output > 100 µM

## Input What value of TGI has been recorded for this entry: "Oc1ccc(Cn2c(-c3ccc(O)cc3)nc3ccccc32)cc1"
## Output > 100 µM

###

Attribute: TGI
tested on: NCI-H522 lung; test: NCI tumour cell line growth inhibition, 48 h

Check out these entries, answers already filled in.
c1ccc(CSC(SCc2ccccc2)c2ccc3c(c2)OCO3)cc1    > 10 µM
O=C1NC(SCc2ccc(F)cc2)=N/C1=C/c1cccc(OCc2ccc(Cl)cc2)c1    > 100 µM
CCC(=O)c1c(C(F)(F)F)n([O-])c2ccccc2[n+]1=O    > 21.4 µM

Note: attention shifts to another entry.
## Input Consider the molecule "NCCCCCNOCCCN" and give its measured TGI.
## Output > 100 µM

###

tested on: T-47D breast; assay: NCI tumour cell line growth inhibition, 48 h
VALUE KIND: TGI

Example entries and their recorded answers appear below.
CN(C)N=Nc1nn(C(=O)Nc2ccc(Cc3ccccc3)cc2)c2ccccc12    > 100 µM
O=C(O)CO/N=C1/C(c2c(O)[nH]c3ccccc23)=Nc2ccccc21    > 100 µM
O=[N+]([O-])c1ccc2[nH]c(O)c(N=NC(=S)Nc3ccccc3)c2c1    38.9 µM
CC(C)(CN)SCc1ccccc1    > 100 µM
c1ccc(CSC(SCc2ccccc2)c2ccc3c(c2)OCO3)cc1    > 10 µM

Let us move to another entry and its TGI.
## Input Param readout= TGI; system= T-47D breast; entry= "COc1ccc2c(c1)C=C1CSCC3=Cc4cc(OC)ccc4OC13O2" ; returns value.
## Output > 100 µM

###

test system: COLO 205 colon; assay: NCI tumour cell line growth inhibition, 48 h
VALUE KIND: TGI

Study these solved cases before continuing.
CSc1nc(-c2ccc(Cl)cc2)c(C#N)c(=O)[nH]1    > 100 µM
CCSC(=O)C1(C)OC2CCCCC2C1=O (centres undefined)    > 100 µM

## Input Give the measured TGI of "COc1cc(Cc2ccc3c(c2C#N)N(C)c2ccccc2S3)cc(OC)c1OC" .
## Output > 100 µM

## Input What value of TGI has been recorded for this entry: "O=C(Nc1ccc(S(=O)(=O)Nc2ncccn2)cc1)c1c2ccccc2nc2ccccc12"
## Output > 100 µM

###

tested on: SNB-75 CNS; experiment: NCI tumour cell line growth inhibition, 48 h
VALUE KIND: TGI

O=c1[nH]cnc2c1ncn2CCCCO    > 100 µM

## Input For the compound Cn1ncnc1C1c2n[nH]c(=O)c3cc(F)cc(c23)NC1c1ccc(F)cc1 (stereo not drawn) , what TGI is on record?
## Output > 100 µM

## Input // returns reported TGI for input "CN(C)C(=S)SCC(N)=O"
## Output > 100 µM

## Input Quick one: TGI of CC1=C(C(=O)NC(C)(C)C)CC(C(=O)NC(C)(C)C)C(C)N1 (stereo not drawn) ?
## Output > 100 µM

## Input Consider the compound shown here: "Cc1ccccc1NC(=O)CSc1nnc(Cc2ccccc2)o1" What is its recorded TGI?
## Output > 100 µM

## Input // lookup TGI for "Cc1cc(C#N)c(Nc2ccccc2[N+](=O)[O-])s1"
## Output > 100 µM

## Input Bench note: what TGI did "O=S(=O)(N/N=C/c1ccc(Cl)cc1Cl)c1ccccc1" show?
## Output > 100 µM

## Input I would be grateful if you could share the reported TGI for O=C(O)C1CC2CC(=O)C1C2 (stereo not drawn) .
## Output > 100 µM

## Input # get_value(readout='TGI', item= "CC/C(=C\c1ccc(Cl)c(Cl)c1)[N+](=O)[O-]" )
## Output > 100 µM

###

Listing: TGI of selected compounds
system: SK-MEL-5 melanoma; test: NCI tumour cell line growth inhibition, 48 h
Reply with just the number (in µM).

COc1cc(/C=C\c2ccc(Cl)cc2)cc(OC)c1OC    12.8

Next:
## Input # query: TGI of entry "COC(=O)C1=NN2c3ccccc3CN([C@@H](C)c3ccccc3)C(=O)[C@H]2[C@@H]1C"
## Output 30.1

###

system: UACC-257 melanoma; assay: NCI tumour cell line growth inhibition, 48 h
Classify as follows. Reported TGI greater than or equal to 30 µM: met. Reported TGI below: not met.

Recorded results for 5 compounds are shown here.
Cc1cc(C(O)CNC(C)CCn2cnc3c2c(=O)n(C)c(=O)n3C)ccc1O (stereo unspecified)    met
Cc1ccc(-n2cc(-c3ccc(Cl)cc3)c3c2N=CN2NC(c4cccs4)=NC32)cc1 (stereo unspecified)    met
CC1=C(C)C(=O)C(C2=C(C3=CC(=O)C(C)=C(C)C3=O)C(=O)c3ccccc3C2=O)=CC1=O    not met
N#CCN(Cc1ccccc1)[C@@H]1CCC[C@]1(O)C#Cc1ccc2c(c1)OCO2    met
Cc1ccc(S(=O)(=O)Nc2cc(Sc3ccccc3)c(O)c3ccccc23)cc1    not met

## Input Could you tell me if the measured TGI of "COc1ccc(/C(C#N)=C(/N)SCc2ccccc2Cl)cc1" reaches 30 µM or more?
## Output met

## Input API: above_or_equal(metric=TGI, cutoff=30 µM) for item "Cc1cn2c(/C=C3/C(=O)Nc4ccccc43)c(C)nc2s1"
## Output met

## Input Check the entry "c1cc(C[S+]2CCCC2)oc1C[S+]1CCCC1" : does TGI equal or exceed 30 µM?
## Output met

###

tested on: SF-295 CNS; assay: NCI tumour cell line growth inhibition, 48 h
VALUE KIND: TGI

Some solved cases for reference:
CC(=O)Nc1nnc(S(=O)(=O)NC(=S)Nc2ccc(Cl)cc2)s1    > 100 µM
O=C(NN1C(=O)CSC12CCC(c1ccccc1)CC2)c1[nH]c2ccc(F)cc2c1-c1ccccc1 (stereo unspecified)    41.6 µM
CSc1nc(C)c(CCCl)c(Cl)n1    > 100 µM
Oc1ccc(O)c2c1C1(Cl)C(Cl)=C(Cl)C2(Cl)C1(Cl)Cl    7.2 µM
COC(=O)CCC1(O)C=CC(=O)C=C1    > 100 µM

## Input Any idea what its TGI is? The compound is "Cn1c2ccccc2c2[nH]c3ccccc3c(=O)c21"
## Output > 100 µM

###

system: ACHN renal; test: NCI tumour cell line growth inhibition, 48 h
VALUE KIND: GI50

## Input Which GI50 is reported with ACHN renal for this entry: "CNc1ncc2cc(Oc3ccc(F)cc3F)c(=O)n(C)c2n1" ?
## Output > 25000 nM

## Input Any idea what GI50 came out for "Cc1cc(Cl)ccc1Nc1nc(C(F)(F)F)ccc1C(=O)Nc1cccc(C(F)(F)F)c1" on ACHN renal?
## Output 2750 nM

## Input Could you share what GI50 was measured for "Cc1ccc(S(=O)(=O)Nc2cc(Sc3ccccc3)c(O)c3ccccc23)cc1" , tested on ACHN renal?
## Output 2800 nM

## Input What reported GI50 corresponds to "c1ccc(/C(=N\Nc2ccc3ccccc3n2)c2ccccn2)cc1" on ACHN renal?
## Output 490 nM

## Input Request: GI50, test system ACHN renal, entry "CC1=NN(C(=O)c2nn(-c3ccc(Cl)cc3)cc2O)C(=O)C1"
## Output 1610 nM

## Input Notebook entry, ACHN renal assay: GI50 of "Cc1ccc(-c2c3c(N)c4c(nc3nc3c2c(C)nn3-c2ccccc2)CCC4)cc1" = ?
## Output 3160 nM
